# reported MIC; entries follow
Tested on: Staphylococcus aureus
testDetails: Antibacterial activity against methicillin-resistant Staphylococcus aureus NRS386 assessed as inhibition of visible bacterial growth incubated for 18 to 20 hrs by CLSI method
Assay type: functional
assayConditions: time 18-20 hrs
parameterMeasured: MIC (µg/mL)

{"smilesStr": "O=C(Nc1nnc(-c2cccs2)o1)c1ccc(S(F)(F)(F)(F)F)cc1", "testedTarget": "Staphylococcus aureus", "numericValue": 0.125}
{"smilesStr": "O=C(Nc1nnc(-c2cccs2)o1)c1ccc(S(=O)(=O)C(F)(F)F)cc1", "testedTarget": "Staphylococcus aureus", "numericValue": 4}
{"smilesStr": "O=C(Nc1nnc(-c2cccs2)o1)c1ccc(SC(F)(F)F)cc1", "testedTarget": "Staphylococcus aureus", "numericValue": 0.5}
{"smilesStr": "O=C(Nc1nnc(-c2cccs2)o1)c1ccc(OC(F)(F)F)cc1", "testedTarget": "Staphylococcus aureus", "numericValue": 1}
{"smilesStr": "CC(=O)NC[C@H]1CN(c2ccc(N3CCOCC3)c(F)c2)C(=O)O1", "testedTarget": "Staphylococcus aureus", "numericValue": 1}
